experimentSummary: Cytotoxicity against human MSC assessed as cell viability at 10 uM treated for 6 days measured on day 7 by alamar blue assay (reference value: 96 to 101%)
setupConditions: MSC cells, read-out: Activity

{"columns": ["molecule", "viability at 144 h, 10 µM / %"],
 "data": [
  ["O=c1c(O)c(-c2ccccc2)oc2cc(O)cc(O)c12", 97],
  ["O=c1c(O)c(-c2ccc(O)c(O)c2)oc2cc(O)ccc12", 96],
  ["COc1ccc([C@@H]2CC(=O)c3c(O)cc(O)cc3O2)cc1O", 98],
  ["O=c1c(O)c(-c2ccc(O)c(O)c2)oc2cc(O)cc(O)c12", 101],
  ["COc1ccc(-c2oc3cc(O)cc(O)c3c(=O)c2O)cc1O", 93],
  ["O=C(CCc1ccc(O)cc1)c1c(O)cc(O)cc1O", 100],
  ["O=C1C[C@@H](c2ccc(O)c(O)c2)Oc2cc(O)cc(O)c21", 101],
  ["O=c1cc(-c2ccccc2)oc2ccccc12", 98],
  ["O=c1cc(-c2ccc(O)c(O)c2)oc2cc(O)cc(O)c12", 96],
  ["O=C1c2c(O)cc(O)cc2O[C@H](c2ccc(O)c(O)c2)[C@H]1O [(+)-TAXIFOLIN]", 101],
  ["O=C1C[C@@H](c2ccc(O)cc2)Oc2cc(O)cc(O)c21", 103],
  ["O=C(O[C@@H]1Cc2c(O)cc(O)cc2O[C@@H]1c1cc(O)c(O)c(O)c1)c1cc(O)c(O)c(O)c1 [EPIGALOCATECHIN GALLATE]", 102],
  ["Oc1cc(O)c2c(c1)O[C@H](c1ccc(O)c(O)c1)[C@H](O)C2 [(-)-EPICATECHIN]", 98],
  ["O=c1cc(-c2ccc(O)cc2)oc2cc(O)cc(O)c12", 94],
  ["Oc1ccc(/C=C/c2cc(O)cc(O)c2)cc1", 97],
  ["O=c1c(O)c(-c2cc(O)c(O)c(O)c2)oc2cc(O)cc(O)c12", 98],
  ["O=c1c(O)c(-c2ccc(O)cc2)oc2cc(O)cc(O)c12", 97],
  ["COc1cc(-c2oc3cc(O)cc(O)c3c(=O)c2O)ccc1O", 97],
  ["Oc1cc(O)c2c(c1)O[C@H](c1ccc(O)c(O)c1)[C@@H](O)C2", 98]
]}

###

Parameter viability at 1 day, 10 µM: see the listing below.
experimentSummary: Cytotoxicity against human MSC assessed as cell viability at 10 uM measured on day 1 by alamar blue assay (reference value: 97 to 101%)
setupConditions: MSC cells, read-out: Activity

{"columns": ["compound", "viability at 1 day, 10 µM"],
 "data": [
  ["O=c1cc(-c2ccccc2)oc2ccccc12 [FLAVONE]", "106%"],
  ["O=c1cc(-c2ccc(O)cc2)oc2cc(O)cc(O)c12 [APIGENIN]", "98%"],
  ["O=c1c(O)c(-c2ccc(O)c(O)c2)oc2cc(O)cc(O)c12 [QUERCETIN]", "89%"],
  ["O=C1C[C@@H](c2ccc(O)c(O)c2)Oc2cc(O)cc(O)c21 [ERIODICTYOL]", "99%"],
  ["O=C1C[C@@H](c2ccc(O)cc2)Oc2cc(O)cc(O)c21 [NARINGENIN]", "105%"]
]}
